Target: HLA-B*51:01
Test: IEDB peptide-MHC binding, purified MHC/competitive/radioactivity; filed as Kd, often an IC50 or EC50 that approximates it; bounds were set here for any values at or beyond the usual limits of such assays
Details: source organism: Dengue virus 2 16681-PDK53
pKd: −log10 of the molar value.
measureName: pKd

Suppose we examine the sequence IPPEKCDTL ; what pKd value has been reported?
≤ 4.11

* * *

Target: HLA-B*08:01
Test: IEDB peptide-MHC binding, purified MHC/direct/fluorescence; filed as Kd, often an IC50 or EC50 that approximates it; bounds were set here for any values at or beyond the usual limits of such assays
Settings: source organism: Campylobacter jejuni subsp. jejuni 81-176
measureName: Kd

Requested field: Kd. Item: AKYEICLEK
≥ 20 µM

* * *

Molecular target: HLA-C*05:01
Test: IEDB peptide-MHC binding, purified MHC/direct/fluorescence; filed as Kd, often an IC50 or EC50 that approximates it; bounds were set here for any values at or beyond the usual limits of such assays
Settings: source organism: Bacillus anthracis str. A0389
pKd: −log10 of the molar value.
measureName: pKd

GET /values?readout=pKd&system=HLA-C*05:01&item= FTDNNELEF
≥ 9.00

* * *

Target: HLA-A*03:01
Test: IEDB peptide-MHC binding, purified MHC/competitive/radioactivity; filed as Kd, often an IC50 or EC50 that approximates it; bounds were set here for any values at or beyond the usual limits of such assays
Conditions: source organism: Vaccinia virus WR
pKd: −log10 of the molar value.
Kindly return 1.0 if reported pKd is no lower than 6; return 0.0 if it is lower.

Sample answers from the record:
   orderedresidues  assignedclass
0        EQLSKYVEK            1.0
1       KSKQDRSDGY            0.0
2       VLPHLCLDYK            1.0
3       KSMFWDGMDY            1.0

Check the entry VISKIYTLIY : does pKd equal or exceed 6?
1.0

Also need QFNFNGHTY , thanks.
0.0

// same read-out, input: ESRPFDLIK
0.0

* * *

Biological target: HLA-B*27:05
Experiment: IEDB peptide-MHC binding, purified MHC/competitive/fluorescence; filed as Kd, often an IC50 or EC50 that approximates it; bounds were set here for any values at or beyond the usual limits of such assays
Conditions: source organism: Rickettsia bellii OSU 85-389
measureName: Kd

Kd lookup needed for EDFEIFYNL , thanks.
≥ 5 µM

* * *

Molecular target: HLA-A*26:01
Test: IEDB peptide-MHC binding, purified MHC/competitive/fluorescence; filed as Kd, often an IC50 or EC50 that approximates it; bounds were set here for any values at or beyond the usual limits of such assays
Conditions: source organism: Vibrio parahaemolyticus RIMD 2210633
measureName: Kd

Item under review: HVIYFTAFT . Reported Kd?
≥ 20 µM

* * *

Biological target: HLA-C*05:01
Assay: IEDB peptide-MHC binding, purified MHC/direct/fluorescence; filed as Kd, often an IC50 or EC50 that approximates it; bounds were set here for any values at or beyond the usual limits of such assays
Details: source organism: Influenza A virus H3N2
pKd: −log10 of the molar value.
measureName: pKd

I would be grateful if you could share the reported pKd for SADPLASLL .
≥ 9.00

* * *

Target: HLA-B*45:01
Assay: IEDB peptide-MHC binding, purified MHC/competitive/radioactivity; filed as Kd, often an IC50 or EC50 that approximates it; bounds were set here for any values at or beyond the usual limits of such assays
Conditions: source organism: Mammarenavirus whitewaterense
measureName: Kd (nM)
Write the value in nM as a bare number.

Name the reported Kd value associated with the sequence AEQSRIFEEL
206

* * *

Molecular target: HLA-B*18:01
Assay: IEDB peptide-MHC binding, purified MHC/direct/fluorescence; filed as Kd, often an IC50 or EC50 that approximates it; bounds were set here for any values at or beyond the usual limits of such assays
Settings: source organism: Salmonella enterica subsp. enterica serovar Typhimurium
pKd: −log10 of the molar value.
measureName: pKd

// lookup pKd for LAMLVLHQV
≤ 4.70

* * *

Target: HLA-B*48:01
Assay: IEDB peptide-MHC binding, purified MHC/competitive/fluorescence; filed as Kd, often an IC50 or EC50 that approximates it; bounds were set here for any values at or beyond the usual limits of such assays
Settings: source organism: Burkholderia vietnamiensis G4
measureName: Kd

Item under review: GQAARDKHL . Reported Kd?
≥ 20 µM

* * *

Target: HLA-A*29:02
Experiment: IEDB peptide-MHC binding, purified MHC/competitive/fluorescence; filed as Kd, often an IC50 or EC50 that approximates it; bounds were set here for any values at or beyond the usual limits of such assays
Conditions: source organism: Homo sapiens
measureName: Kd

So what does the record say about Kd for EVIPYTPAM ?
≥ 20 µM

* * *

Biological target: HLA-B*45:01
Assay: IEDB peptide-MHC binding, purified MHC/competitive/radioactivity; filed as Kd, often an IC50 or EC50 that approximates it; bounds were set here for any values at or beyond the usual limits of such assays
Details: source organism: SARS coronavirus Tor2
measureName: pKd
Would you please state pKd, meaning minus log10 of the concentration in mol/L, as a bare number?

# example entries with known answers
>>> print(df.to_string())
   orderedresidues  assayedtarget  measurename   val
0        SEGVPDLLV    HLA-B*45:01          pKd  4.86
1       REMLAHAEET    HLA-B*45:01          pKd  6.82

Would you mind telling me what pKd value was observed for VEYYPLLFIT ?
6.25

* * *

Molecular target: HLA-A*02:02
Test: IEDB peptide-MHC binding, purified MHC/competitive/radioactivity; filed as Kd, often an IC50 or EC50 that approximates it; bounds were set here for any values at or beyond the usual limits of such assays
Details: source organism: SARS coronavirus Tor2
Item-by-item account of Kd
Provide only the numeric value, understood in nM.

Worked set:
   orderedresidues  assayedtarget    val
0        ALLFLMSFT    HLA-A*02:02   2830
1        KLLIVLTCI    HLA-A*02:02    260
2       LVFLWLLWPV    HLA-A*02:02  0.926

Could you now look at the following sequence, please?
Using the record for WLLWPVTLA , report its Kd.
11.8

* * *

Molecular target: HLA-B*46:01
Assay: IEDB peptide-MHC binding, purified MHC/direct/fluorescence; filed as Kd, often an IC50 or EC50 that approximates it; bounds were set here for any values at or beyond the usual limits of such assays
Conditions: source organism: Escherichia coli O157:H7
pKd: −log10 of the molar value.
measureName: pKd

Entry under review: LPPERRQPF . Reported pKd?
≤ 4.70

* * *

Biological target: HLA-A*11:01
Experiment: IEDB peptide-MHC binding, purified MHC/competitive/fluorescence; filed as Kd, often an IC50 or EC50 that approximates it; bounds were set here for any values at or beyond the usual limits of such assays
Details: source organism: Orthomarburgvirus marburgense
pKd: −log10 of the molar value.
measureName: pKd

Could you share which pKd value was measured for VPAWLPLGI ?
≤ 4.70

* * *

Biological target: HLA-A*26:01
Experiment: IEDB peptide-MHC binding, purified MHC/direct/fluorescence; filed as Kd, often an IC50 or EC50 that approximates it; bounds were set here for any values at or beyond the usual limits of such assays
Settings: source organism: Escherichia coli O157:H7
measureName: Kd

Entry under review: RRNDVARIF . Reported Kd?
≥ 20 µM

* * *

Biological target: HLA-A*26:02
Assay: IEDB peptide-MHC binding, purified MHC/direct/fluorescence; filed as Kd, often an IC50 or EC50 that approximates it; bounds were set here for any values at or beyond the usual limits of such assays
Conditions: source organism: Variola virus
pKd: −log10 of the molar value.
measureName: pKd

May I ask what pKd has been recorded for YHRFGLYRL ?
≤ 4.70

* * *

Biological target: HLA-B*45:06
Assay: IEDB peptide-MHC binding, purified MHC/competitive/fluorescence; filed as Kd, often an IC50 or EC50 that approximates it; bounds were set here for any values at or beyond the usual limits of such assays
Details: source organism: Vaccinia virus Copenhagen
pKd: −log10 of the molar value.
measureName: pKd

What measured pKd goes with YPPPRYITV ?
≤ 5.30

* * *

Biological target: HLA-B*07:02
Assay: IEDB peptide-MHC binding, purified MHC/direct/fluorescence; filed as Kd, often an IC50 or EC50 that approximates it; bounds were set here for any values at or beyond the usual limits of such assays
Settings: source organism: Mammarenavirus lassaense
measureName: Kd

Hi! What's the reported Kd for GYAWIDFDI on HLA-B*07:02?
≥ 20 µM

* * *

Molecular target: HLA-B*08:02
Assay: IEDB peptide-MHC binding, purified MHC/direct/fluorescence; filed as Kd, often an IC50 or EC50 that approximates it; bounds were set here for any values at or beyond the usual limits of such assays
Details: source organism: Mycobacterium tuberculosis str. Haarlem
pKd: −log10 of the molar value.
measureName: pKd

Consider the sequence shown here: LPAQLTATA What is its recorded pKd?
≤ 4.70
